Test system: SW620
Assay: CCK-8 proliferation, SW620
Type: cell-based
Settings: Homo sapiens, SW-620; CCK-8; 96 hours; read-out: Inhibitory activity (IC50) on tumor cell proliferation, SW620
pIC50: −log10 of the molar value.
recorded-metric: pIC50

molecule="CC1(C)CCC(CN2CCN(c3ccc(C(=O)NS(=O)(=O)c4ccc(NCC5CCOCC5)c([N+](=O)[O-])c4)c(Oc4cnc5[nH]ccc5c4)c3)CC2)=C(c2ccc(Cl)cc2)C1 [ABT-199, Venetoclax, reference compound]" system_under_test=SW620 reported_measurement="< 5.00"
molecule="NC(=O)c1ccc(N2CCC(N3CCN(Cc4ccc(C5CCC(=O)NC5=O)c(F)c4)CC3)CC2)nc1-c1ccc(Oc2ccccc2)cc1 (stereo not shown)" system_under_test=SW620 reported_measurement="6.30 to 7.00"

Item: `COc1cc(C(=O)NC2CCN(Cc3cccc(N4CCC(=O)NC4=O)c3)CC2)c(F)cc1Nc1ncc(C(F)(F)F)c(Oc2cccc3c2C(=O)N(C)C3)n1` | pIC50: 6.00 to 6.30

// pIC50 lookup, molecule = CC1(C)CCC(c2ccc(Cl)cc2)=C(CN2CCN(c3ccc(C(=O)NS(=O)(=O)c4ccc(N[C@H](CCN5CCN(Cc6ccc(C7CCC(=O)NC7=O)cc6)CC5)CSc5ccccc5)c(S(=O)(=O)C(F)(F)F)c4)cc3)CC2)C1 (stereo partly shown) , result: 7.30 to 8.00

molecule Cc1ccc(C(=O)Nc2ccc(CN3CCN(Cc4ccc(C5CCC(=O)NC5=O)c(F)c4)CC3)c(C(F)(F)F)c2)cc1C#Cc1cnc2cccnn12 (stereo not shown) , pIC50 observed: 7.00 to 7.30

Entry under test: Cc1ccc(C(=O)Nc2ccc(CN3CCN(Cc4ccc(C5CCC(=O)NC5=O)cc4)CC3)c(C(F)(F)F)c2)cc1C#Cc1cnc2cccnn12 (stereo not shown) . Its pIC50 was 6.30 to 7.00

# molecule NC(=O)c1ncc(N2CCCCC2)nc1Nc1ccc(C2CCN(Cc3ccc(C4CCC(=O)NC4=O)cc3)CC2)cc1 (stereo not shown) ; its pIC50 = 6.00 to 6.30

---

Recorded measurements of inhibition at 0.5 µM, one per entry
Target: human Cereblon WT GST-tagged protein (Homo sapiens, UniProt Q96SW2)
Construct: purchased CISBIO 64BDCRBNPEH
Sequence (Q96SW2 whole entry): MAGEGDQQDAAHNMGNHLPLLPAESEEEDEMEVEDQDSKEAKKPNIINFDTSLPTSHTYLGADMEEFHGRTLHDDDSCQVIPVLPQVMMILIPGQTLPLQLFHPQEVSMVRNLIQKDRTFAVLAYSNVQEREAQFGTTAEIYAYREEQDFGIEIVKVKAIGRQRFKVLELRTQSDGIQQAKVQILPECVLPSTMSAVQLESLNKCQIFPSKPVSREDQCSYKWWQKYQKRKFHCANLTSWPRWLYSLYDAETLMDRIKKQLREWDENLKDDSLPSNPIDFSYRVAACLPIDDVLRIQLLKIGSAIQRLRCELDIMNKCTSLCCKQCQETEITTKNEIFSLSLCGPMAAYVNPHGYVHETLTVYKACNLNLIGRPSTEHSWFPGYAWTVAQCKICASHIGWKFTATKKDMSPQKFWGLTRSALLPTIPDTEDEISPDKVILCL
Experiment: CRBN binding, HTRF (CEREBLON BINDING kit)
Settings: Table II-2, CRBN binding screening, HTRF; at 0.5µM; read-out: Inhibition rate (%) at 0.5µM

compound="O=C1CCC(c2cncc(CCl)c2)C(=O)N1 (centres unmarked)" recorded_metric="inhibition at 0.5 µM" reported_measurement="30 to 40%"
compound="CNC(=O)c1ccccc1Nc1cc(Nc2ccc(N3CCC(N(C)Cc4cc(C5CCC(=O)NC5=O)cnc4F)CC3)cc2OC)ncc1C(F)(F)F (centres unmarked)" recorded_metric="inhibition at 0.5 µM" reported_measurement="20 to 30%"

// inhibition at 0.5 µM value for `C[C@@H]1CNC(=O)c2cc3ccc(C(=O)Nc4cnn(Cc5ccc(NCc6cncc(N7CCC(=O)NC7=O)c6)cc5)c4)nc3n21` : 80 to 100%

get_value(item= `C[C@@H]1CNC(=O)c2cc3ccc(C(=O)Nc4cnn(Cc5ccc(N6CCC(N7CCN(Cc8ccc(N9CCC(=O)NC9=O)cn8)CC7)CC6)cc5)c4)nc3n21` , readout=inhibition at 0.5 µM) returns 60 to 80%

Reported inhibition at 0.5 µM of Cc1ccc(C(=O)Nc2ccc(N3CCC(N(C)Cc4ccc(C5CCC(=O)NC5=O)c(F)c4)CC3)c(C(F)(F)F)c2)cc1C#Cc1cnc2cccnn12 (centres unmarked) : 30 to 40%
